system: Escherichia coli LL 311; experiment: in vitro antibacterial MIC, agar plate dilution; assay type: cell-based; conditions: Escherichia coli, LL311, 18 h, 35° C., read-out: MIC
Where a name gives a salt, the structure may show the parent alone.
Task for the reader: assign each of the following molecules its reported log10 MIC.
The common logarithm of MIC in µg/mL is what is listed.

Sample answers from the record:
INSERT INTO assay_data (molecule, measuredresult) VALUES
  ('COCC1CN(c2cc3c(cc2F)c(=O)c(C(=O)O)cn3C2CC2)CCN1 (centres unmarked) [Example 81]', -1.52),
  ('CCn1cc(C(=O)O)c(=O)c2cc(F)c(N3CCNC(c4cccnc4)C3)cc21 (centres unmarked) [Example 122]', -0.60),
  ('CCn1cc(C(=O)O)c(=O)c2cc(F)c(N3CCN(C)C(c4ccnn4C)C3)cc21 (centres unmarked) [Example 110]', 0.30);

Hi team, please reply with log10 MIC for each item in this list.
1. O=C(O)c1cn(-c2ccc(F)cc2)c2cc(N3CCNC(COc4ccccc4)C3)c(F)cc2c1=O (centres unmarked) [Example 84]
2. O=C(O)c1cn(C2CC2)c2cc(N3CCNC(COc4ccccc4)C3)c(F)cc2c1=O (centres unmarked) [Example 83]
3. O=C(O)c1cn(C2CC2)c2cc(N3CCNC(C4CC4)C3)c(F)cc2c1=O (centres unmarked) [Example 124]
4. O=C(O)c1cn(C2CC2)c2cc(N3CCNC(c4cc[nH]n4)C3)c(F)cc2c1=O (centres unmarked) [Example 121]
5. O=C(O)c1cn(-c2ccc(F)cc2)c2cc(N3CCNC(c4ccsc4)C3)c(F)cc2c1=O (centres unmarked) [Example 100]
6. CCn1cc(C(=O)O)c(=O)c2cc(F)c(N3CCNC(C(C)(F)F)C3)c(F)c21 (centres unmarked) [Example 117]
7. CCn1cc(C(=O)O)c(=O)c2cc(F)c(N3CCNC(c4ccoc4)C3)cc21 (centres unmarked) [Example 94]
8. CCn1cc(C(=O)O)c(=O)c2cc(F)c(N3CCNC(c4ccncc4)C3)c(F)c21 (centres unmarked) [Example 127]

Response:
0.00
-0.92
-1.52
-0.92
-0.60
-0.92
-0.92
-0.30

Hi team, please reply with log10 MIC for each item in this list.
1. O=C(O)c1cn(C2CC2)c2cc(N3CCNC(c4ccccn4)C3)c(F)cc2c1=O (centres unmarked) [Example 128]
2. CN1CCN(c2cc3c(cc2F)c(=O)c(C(=O)O)cn3C2CC2)CC1C1CC1 (centres unmarked) [Example 125]
3. CCn1cc(C(=O)O)c(=O)c2cc(F)c(N3CCN(C)C(CF)C3)c(F)c21 (racemic) [Example 113]
4. O=C(O)c1cn(C2CC2)c2cc(N3CCNC(c4ccco4)C3)c(F)cc2c1=O (centres unmarked) [Example 99, monohydrochloride]
5. O=C(O)c1cn(C2CC2)c2cc(N3CCNC(CF)C3)c(F)cc2c1=O (centres unmarked) [Example 131]
6. CCn1cc(C(=O)O)c(=O)c2cc(F)c(N3CCN(C)C(CF)C3)c(F)c21 (single isomer, unassigned) [Example 114]

Response:
[-1.22, -1.22, -0.30, -1.52, -1.82, -0.60]
